- System: biotinyl-Ile-oxazolone
- Test description: self-aminoacylation, catalytic enhancement (BIO) (fold over background); higher = more active; k-Seq, kA / k0A0; sequences stand for … in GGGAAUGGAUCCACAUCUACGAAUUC…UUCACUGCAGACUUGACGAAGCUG
Fewer inactive variants are shown than the library holds.
sequences and their reported self-aminoacylation
Output: the number by itself.

Example entries begin here.
Inquiry: // self-aminoacylation lookup, key: CGACACUUCAAGCAAUCGGGC [Fam1B.1 aminoacylation ribozyme variant]
Reply text: 1.91

Inquiry: // self-aminoacylation lookup, key: AAGUUUGCUAAUAGACGCAUG [Fam3.1 aminoacylation ribozyme variant]
Reply text: 0.645

Inquiry: // self-aminoacylation lookup, key: CAACACUUCAACCAAUCGGUC [Fam1B.1 aminoacylation ribozyme variant]
Reply text: 1.28

Further cases:
Inquiry: // self-aminoacylation lookup, key: AAGUUUGCUGAUAGUCGUAAG [Fam3.1 aminoacylation ribozyme variant]
Reply text: 0.854

Inquiry: // self-aminoacylation lookup, key: GUUCACCUAGGUCACCGGGUG [Fam2.2 aminoacylation ribozyme variant]
Reply text: 4.06

Inquiry: // self-aminoacylation lookup, key: CCACACUUUAAGCAAUCGGAC [Fam1B.1 aminoacylation ribozyme variant]
Reply text: 0.85
